System: Human plasma kallikrein (Homo sapiens (Human), UniProt P03952)
Sequence (P03952 391-638): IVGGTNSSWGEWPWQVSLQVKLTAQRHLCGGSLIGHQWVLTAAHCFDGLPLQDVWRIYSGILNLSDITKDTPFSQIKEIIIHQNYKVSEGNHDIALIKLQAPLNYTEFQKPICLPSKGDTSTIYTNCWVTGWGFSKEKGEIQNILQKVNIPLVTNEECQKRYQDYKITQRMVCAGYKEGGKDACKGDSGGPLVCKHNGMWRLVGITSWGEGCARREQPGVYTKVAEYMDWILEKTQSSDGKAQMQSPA
Sequence (P03952 20-390 partner): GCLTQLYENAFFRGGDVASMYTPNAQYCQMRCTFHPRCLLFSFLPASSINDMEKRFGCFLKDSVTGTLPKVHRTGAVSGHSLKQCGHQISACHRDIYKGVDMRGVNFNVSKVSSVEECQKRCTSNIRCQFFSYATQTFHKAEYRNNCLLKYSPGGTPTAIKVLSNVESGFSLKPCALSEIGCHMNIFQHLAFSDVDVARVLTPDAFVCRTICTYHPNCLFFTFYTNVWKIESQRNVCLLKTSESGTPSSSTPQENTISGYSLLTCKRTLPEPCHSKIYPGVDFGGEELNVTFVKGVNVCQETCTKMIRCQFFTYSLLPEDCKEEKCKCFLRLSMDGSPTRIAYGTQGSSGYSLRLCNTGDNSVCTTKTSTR
Protocol Summary: Kallikrein Assay
Recorded Conditions: purified Human plasma kallikrein 0.5 nM, Acetyl-K-P-R-AFC, pH 7.4; Ki from IC50 by Cheng Prusoff
Readout Kind: Ki (nM)
Kindly answer with a numeric value in nM, unit omitted.

Any idea what Ki came out for O=C1Nc2ccc(Cl)c(F)c2[C@@]2(CCCN(C(=O)[C@H](CC3CC3)NC(=O)c3ccc4c(O)n[nH]c4c3)C2)O1 on Human plasma kallikrein (Homo sapiens (Human), UniProt P03952)? 2.6

Any idea what Ki came out for COC(=O)Nc1ccc(C(=O)N[C@@H](CC(C)O)C(=O)N2CCC3(C2)OC(=O)Nc2ccc(Cl)cc23)cc1 (stereo partly shown) on Human plasma kallikrein (Homo sapiens (Human), UniProt P03952)? 147

Any idea what Ki came out for COC(=O)Nc1ccc(C(=O)N[C@@H](CCSC)C(=O)N2CCC[C@@]3(C2)OC(=O)Nc2ccc(Cl)cc23)cc1 on Human plasma kallikrein (Homo sapiens (Human), UniProt P03952)? 1.43

Any idea what Ki came out for COC(=O)Nc1ccc(C(=O)N[C@@H](Cc2ccc(C(=O)c3ccccc3)cc2)C(=O)N2CCC3(C2)OC(=O)Nc2ccc(Cl)cc23)cc1 (stereo partly shown) on Human plasma kallikrein (Homo sapiens (Human), UniProt P03952)? 86.6

----------
System: human Factor XIa (Homo sapiens (Human), UniProt P03951)
Sequence (P03951 388-625): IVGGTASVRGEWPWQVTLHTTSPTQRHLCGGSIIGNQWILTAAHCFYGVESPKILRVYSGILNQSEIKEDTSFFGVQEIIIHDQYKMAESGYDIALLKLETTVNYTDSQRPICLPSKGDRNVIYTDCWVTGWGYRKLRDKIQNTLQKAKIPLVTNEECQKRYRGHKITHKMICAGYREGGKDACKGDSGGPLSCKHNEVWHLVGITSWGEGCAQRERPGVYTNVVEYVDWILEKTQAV
Sequence (P03951 19-387 partner): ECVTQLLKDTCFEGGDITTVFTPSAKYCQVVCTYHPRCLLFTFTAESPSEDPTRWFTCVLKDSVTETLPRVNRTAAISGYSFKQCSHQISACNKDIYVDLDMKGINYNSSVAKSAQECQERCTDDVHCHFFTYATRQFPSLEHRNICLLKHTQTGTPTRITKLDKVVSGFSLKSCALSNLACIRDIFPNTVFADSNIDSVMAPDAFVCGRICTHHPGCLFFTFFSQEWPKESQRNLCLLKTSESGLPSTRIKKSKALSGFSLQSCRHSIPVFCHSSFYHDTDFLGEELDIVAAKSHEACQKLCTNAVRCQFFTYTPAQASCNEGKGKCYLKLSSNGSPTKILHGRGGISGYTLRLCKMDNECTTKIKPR
Protocol Summary: Factor XIa Assay
Assay type: biochemical
Recorded Conditions: purified human Factor XIa 40 pM, Z-Gly-Pro-Arg-AFC 100 μM, pH 7.4; read-out: FXIa Ki
pKi: −log10 of the molar value.
Quick rule: pKi of at least 7 means satisfied, below that means not satisfied.

Reported pKi reaches at least 7 for N#Cc1ccc(S(=O)(=O)N[C@@H](Cc2ccccc2)C(=O)N2CCC3(C2)OC(=O)Nc2ccc(Cl)cc23)cc1 (stereo partly shown) [Example 280] ? not satisfied

Reported pKi reaches at least 7 for COC(=O)Nc1ccc(C(=O)N[C@@H](Cc2sccc2F)C(=O)N2CCC3(C2)OC(=O)Nc2ccc(Cl)cc23)cc1 (stereo partly shown) [Example 43] ? satisfied

Reported pKi reaches at least 7 for O=C1Nc2ccc(Cl)c(F)c2[C@@]2(CCCN(C(=O)C(Cc3ccccc3)c3nc(-c4csc(C(=O)O)c4F)c[nH]3)C2)O1 (stereo partly shown) [Example 124] ? not satisfied

Reported pKi reaches at least 7 for COC(=O)Nc1ccc(C(=O)N[C@@H](CC(=O)N2CC(O)(C3CC3)C2)C(=O)N2CCC[C@@]3(C2)OC(=O)Nc2ccc(Cl)cc23)cc1 [Example 100] ? satisfied

Reported pKi reaches at least 7 for COC(=O)Nc1ccc(C(=O)N[C@@H](CCCCO)C(=O)N2CCC3(C2)OC(=O)Nc2ccc(Cl)cc23)cc1 (stereo partly shown) [Example 51] ? satisfied

Reported pKi reaches at least 7 for COC(=O)Nc1ccc(C(=O)N[C@@H](Cc2ccc(F)cc2)C(=O)N2CC[C@@]3(C2)OC(=O)Nc2ccc(Cl)cc23)cc1 [Example 22] ? satisfied

Reported pKi reaches at least 7 for COC(=O)Nc1ccc(C(=O)N[C@@H](CC2CCC2)C(=O)N2CCC[C@@]3(C2)OC(=O)Nc2ccc(Cl)cc23)cc1 [Example 71] ? satisfied

----------
I'd appreciate it if you could supply log10 of Ki values for the items below.
System: human Factor XIa (Homo sapiens (Human), UniProt P03951)
Protocol Summary: Factor XIa Assay
Type: biochemical
Recorded Conditions: read-out: FXIa Ki
Protocol: The effectiveness of a compound of the present invention as an inhibitor of Coagulation Factor XIa can be determined using a relevant purified serine protease, and an appropriate synthetic substrate. The rate of hydrolysis of the chromogenic or fluorogenic substrate by the relevant serine protease was measured both in the absence and presence of compounds of the present invention. […] A decrease in the rate of fluorescence change in the presence of inhibitor is indicative of enzyme inhibition. […]
log10 Ki, µM

Reported log10 of Ki, molecule O=C1C[S+]([O-])c2cc(C(=O)N[C@@H](Cc3ccccc3)C(=O)N3CCC4(C3)OC(=O)Nc3ccc(Cl)cc34)ccc2N1 (stereo partly shown) [Example 192] : ____ -1.00

Reported log10 of Ki, molecule CS(=O)(=O)Nc1ccc(C(=O)N[C@@H](Cc2ccccc2)C(=O)N2CCC3(C2)OC(=O)Nc2ccc(Cl)cc23)cc1 (stereo partly shown) [Example 163] : ____ -1.20

Reported log10 of Ki, molecule Nc1n[nH]c2cc(C(=O)N[C@@H](CC3CC3)C(=O)N3CCC[C@@]4(C3)OC(=O)Nc3ccc(Cl)c(F)c34)ccc12 [Example 254] : ____ -2.68

Reported log10 of Ki, molecule O=C1Cc2ccc(C(=O)N[C@@H](Cc3ccccc3)C(=O)N3CCC4(C3)OC(=O)Nc3ccc(Cl)cc34)cc2N1 (stereo partly shown) [Example 174] : ____ -0.58

Reported log10 of Ki, molecule Nc1n[nH]c2cc(C(=O)N[C@@H](Cc3ccncc3)C(=O)N3CC[C@@]4(C3)OC(=O)Nc3ccc(Cl)cc34)ccc12 [Example 258] : ____ -2.76

Reported log10 of Ki, molecule O=C1Nc2ccc(Cl)cc2C2(CCN(C(=O)[C@H](Cc3ccccc3)NC(=O)c3ccc(-c4nnn[nH]4)cc3)C2)O1 (stereo partly shown) [Example 151] : ____ 0.25

Reported log10 of Ki, molecule COc1ccc(C(=O)N[C@@H](Cc2ccccc2)C(=O)N2CCC3(C2)OC(=O)Nc2ccc(Cl)cc23)nc1 (stereo partly shown) [Example 147] : ____ 0.61

Reported log10 of Ki, molecule CC(C)OC(=O)Nc1ccc(C(=O)N[C@@H](Cc2ccccc2)C(=O)N2CCC[C@@]3(C2)OC(=O)Nc2ccc(Cl)c(F)c23)cc1 [Example 231] : ____ -1.45

Reported log10 of Ki, molecule O=C1Nc2ccc(Cl)cc2C2(CCN(C(=O)[C@H](Cc3ccccc3)NC(=O)C3(c4ccc(C(=O)O)cc4)CC3)C2)O1 (stereo partly shown) [Example 161] : ____ 0.65

Reported log10 of Ki, molecule O=C1Nc2ccc(Cl)c(F)c2[C@@]2(CCCN(C(=O)[C@H](Cc3ccccc3)NC(=O)c3ccc4[nH]c(=O)ccc4c3)C2)O1 [Example 257] : ____ -3.11

Reported log10 of Ki, molecule O=C1Nc2ccc(Cl)cc2[C@@]2(CCN(C(=O)[C@H](Cc3ccccc3)NC(=O)c3ccc4[nH]c(=O)[nH]c(=O)c4c3)C2)O1 [Example 228] : ____ -1.77

Reported log10 of Ki, molecule COC(=O)Nc1ccc(C(=O)N[C@@H](Cc2ccccc2)C(=O)N2CCC3(C2)OC(=O)Nc2ccc(Cl)cc23)s1 (stereo partly shown) [Example 196] : ____ -1.20

Reported log10 of Ki, molecule O=C1Nc2ccc(Cl)cc2[C@@]2(CCCN(C(=O)[C@H](Cc3ccccc3)NC(=O)c3ccc4c(O)cc(=O)[nH]c4c3)C2)O1 [Example 221] : ____ -0.29

----------
System: human Factor XIa (Homo sapiens (Human))
Protocol Summary: Factor XIa Assay
Type: biochemical
Recorded Conditions: purified human Factor XIa 40 pM, Z-Gly-Pro-Arg-AFC 100 μM, pH 7.4; read-out: FXIa Ki
pKi: −log10 of the molar value.
Quick rule: pKi of at least 7 means y, below that means n.

Reported pKi reaches at least 7 for O=C1Nc2ccc(Cl)c(F)c2[C@@]2(CCCN(C(=O)C(Cc3ccccc3)c3ncc(-c4ccc(C(=O)O)s4)[nH]3)C2)O1 (stereo partly shown) ? y

Reported pKi reaches at least 7 for CC(=O)Nc1ccc(S(=O)(=O)N[C@@H](Cc2ccccc2)C(=O)N2CCC3(C2)OC(=O)Nc2ccc(Cl)cc23)cc1 (stereo partly shown) ? n

Reported pKi reaches at least 7 for COC(=O)Nc1ccc(C(=O)N[C@@H](Cc2ccccc2)C(=O)N2CC[C@@]3(C2)OC(=O)Nc2ccc(Cl)c(F)c23)cc1 ? y

Reported pKi reaches at least 7 for O=C1Nc2ccc(Cl)cc2[C@@]2(CCCN(C(=O)[C@H](Cc3ccccc3)Nc3ccc(-c4cccc(C(=O)O)c4)cn3)C2)O1 ? n

Reported pKi reaches at least 7 for COC(=O)Nc1ccc(C(=O)N[C@@H](Cc2ccccc2)C(=O)N2CC[C@@]3(C2)OC(=O)Nc2ccc(C)cc23)cc1 [Example 14b] ? y

Reported pKi reaches at least 7 for COC(=O)Nc1ccc(C(=O)N[C@@H](Cc2ccc(C(N)=O)cc2)C(=O)N2CCC[C@@]3(C2)OC(=O)Nc2ccc(Cl)cc23)cc1 ? y

Reported pKi reaches at least 7 for COC(=O)Nc1ccc(C(=O)N[C@@H](Cc2ccc(C#N)cc2)C(=O)N2CCC[C@@]3(C2)OC(=O)Nc2ccc(Cl)cc23)cc1 ? y

Reported pKi reaches at least 7 for COC(=O)Nc1ccc(C(=O)N[C@@H](CC(=O)N2CC(F)(F)C2)C(=O)N2CCC[C@@]3(C2)OC(=O)Nc2ccc(Cl)cc23)cc1 ? y

Reported pKi reaches at least 7 for Nc1nc2ccc(C(=O)N3C[C@H](F)C[C@H]3C(=O)N3CC[C@@]4(C3)OC(=O)Nc3ccc(Cl)cc34)cc2s1 ? n

Reported pKi reaches at least 7 for COC(=O)Nc1ccc(C(=O)N[C@@H](CCF)C(=O)N2CCC[C@@]3(C2)OC(=O)Nc2ccc(Cl)cc23)cc1 ? y

Reported pKi reaches at least 7 for COC(=O)Nc1ccc(C(=O)N[C@@H](Cc2ccncc2F)C(=O)N2CCC[C@@]3(C2)OC(=O)Nc2ccc(Cl)c(F)c23)cc1 ? y

Reported pKi reaches at least 7 for COC(=O)Nc1ccc(C(=O)N[C@@](C)(Cc2ccccc2)C(=O)N2CCC3(C2)OC(=O)Nc2ccc(Cl)cc23)cc1 (stereo partly shown) ? n

Data provenance is patent US10093683B2.
